Target: LTA4-h (Homo sapiens, UniProt P09960)
Test: Peptidase (aminopeptidase) assay
Format: biochemical
Experimental: Since LTA4-h hydrolase is grouped with the M1 family of zinc metalloproteases (see, Rudberg, P. C. et al., J. Biol. […] The whole blood and aminopeptidase assays were performed as described in Penning et al., J. Med.
Here, each record is paired with measured pIC50 data.
Answer as the number alone; pIC50 is minus log10 of concentration in mol/L.

COC(=O)c1ccc(CN(CC2CNC2)c2ccc(Oc3ccc(Cl)cc3)cc2)cc1 :: 7.34
CN1CCC(CN(Cc2ccc(F)cc2)c2ccc(Oc3ccc(Cl)cc3)cc2)C1 (stereo not shown) :: 6.78

// pIC50 lookup, molecule = O=C(O)c1ccc(CN(CC2CCNC2)c2ccc(Oc3ccc(Cl)cc3)cc2)cc1 (stereo not shown) , result: 6.85

// pIC50 lookup, molecule = O=C(O)c1ccc(CN(CC2CCN(Cc3ccccc3)C2)c2ccc(Oc3ccc(Cl)cc3)cc2)cc1 (stereo not shown) , result: 5.82

// pIC50 lookup, molecule = CC(C)(C)OC(=O)N1CCC(CN(Cc2ccc(S(N)(=O)=O)cc2)c2ccc(Oc3ccc(Cl)cc3)cc2)C1 (stereo not shown) , result: 7.92

// pIC50 lookup, molecule = COC(=O)c1ccc(CN(CC2CCN(Cc3ccc(F)cc3)C2)c2ccc(Oc3ccc(Cl)cc3)cc2)cc1 (stereo not shown) , result: 7.00

// pIC50 lookup, molecule = COC(=O)c1cccc(CN(CC2CNC2)c2ccc(Oc3ccc(Cl)cc3)cc2)c1 , result: 7.48

----------
Here, each record is paired with measured IC50 data.
biological target: LTA4-h hydrolase (Homo sapiens, UniProt P09960); construct: endogenous in cells; experiment: Whole blood assay (WBA)
Sequence (P09960 whole entry): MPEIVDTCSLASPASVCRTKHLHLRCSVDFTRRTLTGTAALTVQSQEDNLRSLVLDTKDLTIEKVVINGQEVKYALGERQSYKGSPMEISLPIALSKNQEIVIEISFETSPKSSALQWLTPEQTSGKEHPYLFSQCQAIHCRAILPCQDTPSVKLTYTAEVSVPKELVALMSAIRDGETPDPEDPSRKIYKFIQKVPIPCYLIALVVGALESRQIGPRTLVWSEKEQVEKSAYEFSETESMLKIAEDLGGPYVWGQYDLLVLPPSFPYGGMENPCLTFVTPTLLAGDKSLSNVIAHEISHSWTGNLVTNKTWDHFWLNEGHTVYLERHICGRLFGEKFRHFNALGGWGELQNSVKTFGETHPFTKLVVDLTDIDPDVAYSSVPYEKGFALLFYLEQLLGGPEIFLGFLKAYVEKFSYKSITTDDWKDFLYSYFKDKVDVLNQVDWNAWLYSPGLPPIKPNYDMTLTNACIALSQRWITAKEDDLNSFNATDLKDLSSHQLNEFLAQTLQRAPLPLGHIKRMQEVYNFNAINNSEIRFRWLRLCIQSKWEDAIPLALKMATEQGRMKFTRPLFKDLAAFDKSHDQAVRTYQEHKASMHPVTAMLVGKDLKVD

Example entries and their recorded answers appear below.
O=C(O)c1ccc(CN(CC2CCNC2)c2ccc(Oc3ccc(Cl)cc3)cc2)cc1 (stereo not shown) [Compound 11] :: 670 nM
COC(=O)c1ccc(CN(CC2CNC2)c2ccc(Oc3ccc(Cl)cc3)cc2)cc1 [Compound 28] :: 800 nM
O=C(O)CN(CC1CCNC1)c1ccc(Oc2ccc(Cl)cc2)cc1 (stereo not shown) [Compound 29] :: 920 nM

// IC50 lookup, molecule = Clc1ccc(Oc2ccc(NC3CNC3)cc2)cc1 [Compound 5] , result: 920 nM
